For reference, the following Ki results for Adenosine receptor A3 (Homo sapiens, UniProt P0DMS8) were taken from various sources.
Under this convention, Y denotes Ki strictly below 100 nM and N denotes Ki at or above 100 nM.

Worked cases, answers included:
>  <compound_string>
Cc1ccc(S(=O)(=O)n2c(CCOc3nc(N)c4ncn([C@@H]5O[C@H](CO)[C@@H](O)[C@H]5O)c4n3)cc3ccccc32)cc1

>  <group>
N

$$$$
>  <compound_string>
CCCn1c(=O)c2nc([C@]34CC[C@](C(=O)NCC(=O)OC)(CC3)CC4)[nH]c2n(CCC)c1=O

>  <group>
N

$$$$
>  <compound_string>
COc1cc(-c2cc3cccc(C)c3oc2=O)cc(OC)c1OC

>  <group>
N

$$$$

Bench note: check whether Nc1nc2nn(CCc3ccccc3)cc2c2nc(-c3ccccc3)nn12 shows Ki below 100 nM
Y

Bench note: check whether CCCN1C(=O)N2C[C@@H](C(C)C)N=C2c2[nH]c(C34CCC(O)(CC3)CC4)nc21 shows Ki below 100 nM
N

Bench note: check whether O=c1c(-c2ccccc2)nnc2n(-c3ccccc3)c3ccccc3n12 shows Ki below 100 nM
N

Bench note: check whether O=C(Nc1nc2c(Cl)ncnc2s1)c1ccccc1 shows Ki below 100 nM
N

Bench note: check whether CCOc1ccccc1CNC(=O)[C@H]1S[C@@H](n2cnc3c(NCc4cccc(I)c4)ncnc32)[C@H](O)[C@@H]1O shows Ki below 100 nM
N

Bench note: check whether COc1ccn2c(c1)nc1c2c(=O)n(CCC(C)(C)C)c(=O)n1Cc1ccccc1 shows Ki below 100 nM
Y

Bench note: check whether Cn1cc2c(nc(NC(=O)Cc3ccccc3)n3nc(-c4ccc(Br)cc4)nc23)n1 shows Ki below 100 nM
Y

Bench note: check whether CCn1cnc2ncnc(N)c21 shows Ki below 100 nM
N

Bench note: check whether Cn1cc2c(nc(NC(=O)NC3CCN(Cc4ccc(Cl)cc4)CC3)n3nc(-c4ccco4)nc23)n1 shows Ki below 100 nM
Y

Bench note: check whether CCCCCCSC(=O)c1c(CC)nc(-c2cccc(Cl)c2)c(C(=O)OCCC)c1CC shows Ki below 100 nM
N

Bench note: check whether COc1ccc(-n2cc3nc(-c4cccs4)nc(N)c3n2)cc1 shows Ki below 100 nM
Y

Bench note: check whether CCNC(=O)[C@H]1O[C@@H](n2cnc3c(Nc4ccc(OCC(=O)NCc5ccc(OC)cc5)cc4)ncnc32)[C@H](O)[C@@H]1O shows Ki below 100 nM
Y

Bench note: check whether Cc1nc(N(C(=O)c2ccccc2)C(=O)c2ccccc2)c2nn(-c3ccccc3)cc2n1 shows Ki below 100 nM
Y

Bench note: check whether c1nc2nc(Nc3ccc(N4CCOCC4)cc3)nc(NC3CC3)c2[nH]1 shows Ki below 100 nM
N

Bench note: check whether CN(C)C(=O)[C@H]1S[C@@H](n2cnc3c(NCC4CC4)nc(Cl)nc32)[C@H](O)[C@@H]1O shows Ki below 100 nM
Y

Bench note: check whether Cc1ccc(-c2nc3c(=O)[nH]c(C)nc3s2)cc1 shows Ki below 100 nM
Y
